# target: T1, Glycoprotein VI extracellular domain (Gln21-Lys267) (Homo sapiens, UniProt Q9HCN6 SEQ:1-247)
# T1 chain: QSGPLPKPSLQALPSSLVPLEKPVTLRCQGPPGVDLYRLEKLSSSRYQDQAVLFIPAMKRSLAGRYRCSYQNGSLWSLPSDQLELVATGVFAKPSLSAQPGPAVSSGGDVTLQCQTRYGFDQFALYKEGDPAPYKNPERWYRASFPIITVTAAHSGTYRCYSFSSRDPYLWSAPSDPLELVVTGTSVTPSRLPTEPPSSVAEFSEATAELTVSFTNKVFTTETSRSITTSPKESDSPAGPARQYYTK
# procedureText: filter
# experimentalContext: tags: C-terminal His6; R&D Systems 3627-GP; label: 5'-32P
endpointLabel: Kd

What value of Kd has been reported for the following binder? GGGAGGACGGCCUAAGCCUGGCAUAAGCCUCCC (ssRNA, 2'-F C and U; 2'-OH A and G) [EF-31 T8]
> 40 nM

Kd lookup needed for GGGAGGACGGCGCGCCUGGCAUAAGCCUCCC (ssRNA, RB490 with 2'-OMe A23) [RB505] , thanks.
< 10 nM

Which measured Kd value corresponds to GGGAGGACGGCGCGCCUGGCAUAAGCCUCCC (ssRNA, RB490 with 2'-OMe G9) [RB497] ?
< 10 nM
